target: maltase
testName: α-glycosidase-inhibiting activity, maltase (small intestinal brush border membrane vesicles)
Format: biochemical
reportedConditions: substrate maltose (74 mM), 0.1 M maleic acid buffer pH 6.0, 37° C., 30 minutes, glucose-oxidase method
propertyLabel: IC50, maltase

[[record]]
compound = "O=S(=O)([O-])OC(C(O)C[S+]1CC(O)C(O)C1CO)C(O)C(O)C(O)CO (stereo not drawn) [Compound (6c)]"
propertylabel = "IC50, maltase"
result = ">100 µg/mL"

[[record]]
compound = "O=S(=O)([O-])OC(C(O)C[S+]1CC(O)C(O)C1CO)C(O)C(O)C(O)CO (single isomer, unassigned) [Compound (6b)]"
propertylabel = "IC50, maltase"
result = ">100 µg/mL"

[[record]]
compound = "O=S(=O)([O-])OC(C(O)C[S+]1CC(O)C(O)C1CO)C(O)C(O)C(O)CO (single isomer, unassigned) [Compound (6g)]"
propertylabel = "IC50, maltase"
result = ">100 µg/mL"


Ref: patent US20100063302A1
